Tested on: THP-1 cells
Protocol Summary: LPS induced cytokine (TNFα and IL8) production assay in THP-1 cells
Type: cell-based
Test Conditions: Homo sapiens, 300 ng/mL LPS, read-out: TNFα production IC50
pIC50: −log10 of the molar value.
Parameter: pIC50

Here are 7 compounds together with their reported answers.
NC(=O)[C@H](O)C[C@H]1CCc2sc3ncnc(O[C@H]4CC[C@H](N5CCCC5)CC4)c3c21; ≥ 6.30
CN(CCc1ccccn1)[C@H]1CC[C@H](Oc2ncnc3sc4c(c23)[C@@H](CC(N)=O)CC4)CC1; 5.30 to 6.00
CN(C)[C@H]1CC[C@H](Oc2ncnc3sc4c(c23)C[C@@H](C(N)=O)CC4)CC1; ≥ 6.30
NC(=O)[C@@H](O)C[C@H]1CCc2sc3ncnc(O[C@H]4CC[C@H](N5CCCCC5)CC4)c3c21; ≥ 6.30
Cn1cc(Nc2nc(O[C@H]3CC[C@H](N(C)C)CC3)c3c4c(sc3n2)CCC4CC(N)=O)cn1 (stereo in doubt) [Compound I-222]; ≤ 5.30
CN(C)[C@H]1CC[C@H](Oc2ncnc3sc4c(c23)[C@@H](C[C@@H](O)C(F)(F)F)CC4)CC1; 6.00 to 6.30
N#CC(C[C@H]1CCc2sc3ncnc(O[C@H]4CC[C@H](N5CCOCC5)CC4)c3c21)C(N)=O (some centres unmarked); 5.30 to 6.00

Please look at the following compound next.
// query Write down measured pIC50 (THP-1 cells) for this compound. `CC[C@@H](O)C[C@H]1CCc2sc3ncnc(O[C@H]4CC[C@H](N5CCOCC5)CC4)c3c21`
// result 6.00 to 6.30
